- experimental system: T1, canine NGF tagged at the C-terminus with the Flag tag (canine, UniProt A0A8I3PYI3 122-241)
- T1 construct: mature; 'mature' rests on the words 'processed form'; also called feline NGF (processed form identical)
- T1 sequence (A0A8I3PYI3 entry or part of it): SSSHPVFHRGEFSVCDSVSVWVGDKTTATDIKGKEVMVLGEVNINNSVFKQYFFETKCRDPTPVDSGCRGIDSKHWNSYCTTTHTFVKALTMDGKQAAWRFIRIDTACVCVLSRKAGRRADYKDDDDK
- experimental details: SPR, Biacore T200; antibody captured on anti-feline CM5 chip, NGF as analyte; 1:1 model
kon values for the binders below.
Respond with the figure and its unit, in that order.

Field: example entries. Status: answers known.
{"binder": "felinized clone 101 (antibody, V domains shown) VH: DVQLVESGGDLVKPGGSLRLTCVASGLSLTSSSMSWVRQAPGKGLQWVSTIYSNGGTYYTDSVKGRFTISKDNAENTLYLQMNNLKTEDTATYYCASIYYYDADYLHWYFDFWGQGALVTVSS VL: EIQMTQSPTSLSASVGDRVTITCRASEGISNNLSWYQQTPGKAPKLLIYATSNLHSGVPSRFSGSGSGTDFTLTISSLQPEDFATYYCQQGYKWPLTFGGGTKLEIT", "kon": "784000 M⁻¹ s⁻¹"}
{"binder": "SC-184_76 (antibody, IgG1a, V domains shown) VH: DVQLVESGGDLVKPGGSLRLTCVASGLSLTSDSMSWVRQAPGKGLQWVSTLWSNGGTYYTDSVKGRFTISKDNAENTLYLQMNNLKTEDTATYYCASIYYYEADYLHWYFDFWGQGALVTVSS VL: EIQMTQSPTSLSASVGDRVTITCRASEGIANNLSWYQQTPGKAPKLLIYATSNLHSGVPSRFSGSGSGTDFTLTISSLQPEDFATYYCQQGFKWPLTFGGGTKLEIT", "kon": "838000 M⁻¹ s⁻¹"}
{"binder": "SC-184_110 (antibody, IgG1a, V domains shown, also called SC-110) VH: DVQLVESGGDLVKPGGSLRLTCVASGLSLTSASMSWVRQAPGKGLQWVSTIYSNGGTYYTDSVKGRFTISKDNAENTLYLQMNNLKTEDTATYYCASIYYYEAEYLHWYFDFWGQGALVTVSS VL: EIQMTQSPTSLSASVGDRVTITCRASEGISKNLSWYQQTPGKAPKLLIYATDNLHSGVPSRFSGSGSGTDFTLTISSLQPEDFATYYCQQGWKWPLTFGGGTKLEIT", "kon": "492000 M⁻¹ s⁻¹"}
{"binder": "AHF17602 (antibody, V domains shown, also called AIF17602) VH: DVQLVESGGDLVKPGGSLRLTCVASGLSLTSSSMVWVRQAPGKGLQWVSTIYSNRGTYYTDSVKGRFTISKDNAENTLYLQMNNLKTEDTATYYCASIYYYDADYLHWYFDFWGQGALVTVSS VL: EIQMTQSPTSLSASVGDRVTITCRASEGIANNLSWYQQTPGKAPKLLIYATSNLHSGVPSRFSGSGSGTDFTLTISSLQPEDFATYYCQQGYKWPLTFGGGTKLEIT", "kon": "394000 M⁻¹ s⁻¹"}
{"binder": "SC-184_76-Arg (antibody, V domains shown, SC-184_76 containing the G55R mutation in VH; feline antibody captured on an anti-feline chip) VH: DVQLVESGGDLVKPGGSLRLTCVASGLSLTSDSMSWVRQAPGKGLQWVSTLWSNRGTYYTDSVKGRFTISKDNAENTLYLQMNNLKTEDTATYYCASIYYYEADYLHWYFDFWGQGALVTVSS VL: EIQMTQSPTSLSASVGDRVTITCRASEGIANNLSWYQQTPGKAPKLLIYATSNLHSGVPSRFSGSGSGTDFTLTISSLQPEDFATYYCQQGFKWPLTFGGGTKLEIT", "kon": "585000 M⁻¹ s⁻¹"}

Write down kon measured for item SC-184_110-Arg (antibody, V domains shown, SC-184_110 containing the G55R mutation in VH; feline antibody captured on an anti-feline chip) VH: DVQLVESGGDLVKPGGSLRLTCVASGLSLTSASMSWVRQAPGKGLQWVSTIYSNRGTYYTDSVKGRFTISKDNAENTLYLQMNNLKTEDTATYYCASIYYYEAEYLHWYFDFWGQGALVTVSS VL: EIQMTQSPTSLSASVGDRVTITCRASEGISKNLSWYQQTPGKAPKLLIYATDNLHSGVPSRFSGSGSGTDFTLTISSLQPEDFATYYCQQGWKWPLTFGGGTKLEIT
387000 M⁻¹ s⁻¹

Write down kon measured for item SC-184_102-Arg (antibody, V domains shown, SC-184_102 containing the G55R mutation in VH; feline antibody captured on an anti-feline chip) VH: DVQLVESGGDLVKPGGSLRLTCVASGLSLTSNSMSWVRQAPGKGLQWVSTIWSNRGTYYTDSVKGRFTISKDNAENTLYLQMNNLKTEDTATYYCASIYYYEAEYLHWYFDFWGQGALVTVSS VL: EIQMTQSPTSLSASVGDRVTITCRASKGISNNLSWYQQTPGKAPKLLIYAQSNLHSGVPSRFSGSGSGTDFTLTISSLQPEDFATYYCQQGYKWPLTFGGGTKLEIT
343000 M⁻¹ s⁻¹

Write down kon measured for item SC-184_102 (antibody, IgG1a, V domains shown, also called SC-102) VH: DVQLVESGGDLVKPGGSLRLTCVASGLSLTSNSMSWVRQAPGKGLQWVSTIWSNGGTYYTDSVKGRFTISKDNAENTLYLQMNNLKTEDTATYYCASIYYYEAEYLHWYFDFWGQGALVTVSS VL: EIQMTQSPTSLSASVGDRVTITCRASKGISNNLSWYQQTPGKAPKLLIYAQSNLHSGVPSRFSGSGSGTDFTLTISSLQPEDFATYYCQQGYKWPLTFGGGTKLEIT
471000 M⁻¹ s⁻¹
